# TARGET_SYSTEM: human MAGL (Homo sapiens)
# Construct: recombinant MAGL enzyme (aa 2-303 RBC, internal preparation)
# Sequence (Q99685 2-303): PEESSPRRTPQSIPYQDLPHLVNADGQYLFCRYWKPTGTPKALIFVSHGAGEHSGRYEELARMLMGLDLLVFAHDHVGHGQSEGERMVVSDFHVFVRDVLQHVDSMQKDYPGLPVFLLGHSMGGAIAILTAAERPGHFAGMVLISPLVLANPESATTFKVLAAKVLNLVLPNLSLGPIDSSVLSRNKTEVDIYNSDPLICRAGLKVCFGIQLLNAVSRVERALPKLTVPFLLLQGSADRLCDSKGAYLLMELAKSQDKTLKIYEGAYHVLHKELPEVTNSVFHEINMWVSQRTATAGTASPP
# EXPERIMENTAL_DETAILS: MAGL inhibition potency assay with 4-nitrophenyl acetate (4NPA) substrate, absorbance 405 nm
# Assay type: biochemical
# CONDITION_SET: Method 14: Reaction Biology MAGL enzyme prep, 6 nM enzyme (Conc "0", Source "0"); read-out: MAGL Potency (Detection Method)
EXPERIMENTAL_READOUT: IC50

Exercise: Reported IC50 for Cc1ccccc1-n1nccc1C1CC2(C1)CN(C(=O)c1cc(O)ccc1F)C2 : what is it?
Solution: 50 to 150 nM

----------
Entries and their measured IC50 follow.
# TARGET_SYSTEM: human MAGL (Homo sapiens)
# Construct: recombinant MAGL enzyme (aa 2-303 RBC, internal preparation)
# EXPERIMENTAL_DETAILS: MAGL inhibition potency assay with 4-nitrophenyl acetate (4NPA) substrate, absorbance 405 nm
# Format: biochemical
# CONDITION_SET: Method 12: Reaction Biology MAGL enzyme prep, 15 nM enzyme; read-out: MAGL Potency (Detection Method)

Known results for compounds:
Exercise: Reported IC50 for Cc1ccc(F)c(-c2c(C(F)(F)F)cnn2C2CC3(C2)CN(C(=O)c2cc(O)ccc2F)C3)c1 (single isomer, unassigned) : what is it?
Solution: 150 to 500 nM

Exercise: Same question for O=C(c1cc(O)ccc1F)N1CC2(CC(n3nccc3-c3ccccc3C(F)(F)F)C2)C1 (single isomer, unassigned) please.
Solution: 50 to 150 nM

Exercise: Same question for Cc1ccc(F)cc1-n1nc(C2CC3(C2)CN(C(=O)c2ccc(F)cc2OC2CC2)C3)cc1C (single isomer, unassigned) please.
Solution: 500 to 1000 nM

New cases:
Exercise: Reported IC50 for O=C(c1cc(O)ccc1F)N1CC2(CC(n3ncc(C4CC4)c3-c3ccccc3F)C2)C1 (single isomer, unassigned) : what is it?
Solution: 50 to 150 nM

Exercise: Same question for O=C(c1cc(O)ccc1F)N1CC2(CC(n3ncc(C(F)(F)F)c3-c3ccccc3F)C2)C1 (single isomer, unassigned) please.
Solution: 50 to 150 nM

Exercise: Same question for Cc1cc(C2CC3(C2)CN(C(=O)c2ccc(F)cc2OC2CC2)C3)n(-c2cc(F)ccc2C)n1 (single isomer, unassigned) please.
Solution: 50 to 150 nM

----------
# TARGET_SYSTEM: MAGL enzyme (Homo sapiens)
# EXPERIMENTAL_DETAILS: MAGL reversible inhibition assay (return of activity after washout)
# Format: biochemical
# CONDITION_SET: pre-washout compound concentration 1 μM; relative to control without inhibitor
Entries and their measured A: degree to which MAGL enzymatic activity returned following washout follow.
Numbers only here, please. The scale is %.

Known results for compounds:
Exercise: Reported A: degree to which MAGL enzymatic activity returned following washout for Cc1cnn(C2CC3(C2)CN(C(=O)c2cc(O)ccc2F)C3)c1-c1cc(F)ccc1Cl (single isomer, unassigned) : what is it?
Solution: 155

Exercise: Same question for Cc1cn(C2CC3(C2)CN(C(=O)c2cc(O)ccc2F)C3)nc1-c1cc(F)ccc1Cl please.
Solution: 100

Exercise: Same question for O=C(c1cc(O)ccc1F)N1CC2(CC(n3cc(C4CC4)c(-c4ccccc4F)n3)C2)C1 (single isomer, unassigned) please.
Solution: 47

// switching to the query compound
Exercise: Reported A: degree to which MAGL enzymatic activity returned following washout for O=C(c1cc(O)ccc1F)N1CC2(CC(n3cc(C(F)(F)F)c(-c4ccccc4F)n3)C2)C1 (single isomer, unassigned) : what is it?
Solution: 41
